src = patent US20230357447A1

Biological target: T1, Anti-CD28 scFv (VH-linker 1-VL) (biotinylated (site not stated))
T1 construct: biotinylated and captured on neutravidin coated plates in the phage ELISA
T1 sequence (scFv, as listed by the source): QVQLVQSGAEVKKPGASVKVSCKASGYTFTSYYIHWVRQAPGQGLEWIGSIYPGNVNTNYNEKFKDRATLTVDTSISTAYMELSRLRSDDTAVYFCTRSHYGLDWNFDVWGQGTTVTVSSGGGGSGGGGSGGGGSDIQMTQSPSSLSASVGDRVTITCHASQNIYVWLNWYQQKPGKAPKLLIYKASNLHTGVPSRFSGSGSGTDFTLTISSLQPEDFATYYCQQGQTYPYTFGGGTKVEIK
Experiment: phage binding ELISA on captured biotinylated anti-CD28 scFv;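 note: crude clonal phage supernatants applied to the wells, bound phage read out with an HRP-conjugated anti-M13 antibody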
Catalogue of CD28 scFv signal values
# respond with the number and nothing more

// known answers, use as guide
Consider MNWCPIDMWTECFN [Phage-406] . Its measured CD28 scFv signal is 1.4

# binder MYWCPINMWDYCYA [Phage-422] ; its CD28 scFv signal = 0.109

Lab book: CD28 scFv signal of NHWCPTTLWNRCVA [Phage-386] noted as 0.078

Short answer for MDWCPRNMWNECFF [Phage-398] : CD28 scFv signal was 2.1

// recorded CD28 scFv signal for MNWCPRALWHECFL [Phage-375] : 0.759

Lab note: MDWCPIHLWYECFN [Phage-352] gave CD28 scFv signal of 1.73

Documented CD28 scFv signal of MDWCPRYMWSDCFF [Phage-394] : 2.28

Briefly, CD28 scFv signal measured for ITWCPTSLWNRCLV [Phage-382] : 0.242

---
Recorded result, MDWCPKPLWHVCFA [Phage-337] , CD28 scFv signal: 2.02

Looking up MDWCPRTLWDQCFF [Phage-339] , I see its CD28 scFv signal listed as 1.99

Looking up MDWCPRFLWNECFY [Phage-338] , I found its CD28 scFv signal recorded as 2

The recorded CD28 scFv signal for entry IYWCPTAMWNRCSA [Phage-417] equals 0.817

The binder listed as MDWCPLDMWVLCFA [Phage-401] shows CD28 scFv signal equal to 1.84
